The measured values listed here are drawn from ChEMBL document CHEMBL3612044.

- test-target: Carbonic anhydrase 9 (Homo sapiens, UniProt Q16790)
# key: entry, value: pKi
pKi is defined as minus the log10 of a concentration measured in mol/L.

Worked set:
[[record]]
compound = "NS(=O)(=O)c1ccc(-c2cn([C@@H]3O[C@H](COP(=O)(O)O)[C@@H](O)[C@H](O)[C@H]3O)nn2)cc1"
reported_property = "pKi"
reported = 6.61

[[record]]
compound = "CC(=O)O[C@@H]1[C@@H](OC(C)=O)[C@H](n2cc(-c3ccc(S(N)(=O)=O)cc3)nn2)O[C@H](COP2(=O)OCc3ccccc3O2)[C@H]1OC(C)=O (stereo partly drawn)"
reported_property = "pKi"
reported = 7.07


Proceed to the following item.
Given CC(=O)O[C@@H]1[C@@H](OC(C)=O)[C@H](S(N)(=O)=O)O[C@H](COP(=O)(OCCSC(=O)C(C)(C)C)OCCSC(=O)C(C)(C)C)[C@H]1OC(C)=O , respond with its pKi.
6.81
